# credit: PubChem BioAssay (NCATS)

- protocol.text: Quantitative High-Throughput drug screen in 47 multiple myeloma cell lines against the NCATS MIPE library collection: H1112_PLB cell viability assay (AID 1918967; further: nearly all actives have a fitted effect of over 30% in size)
- condition.set: H1112 myeloma cells viability, ATP luminescence, 48 h; series mostly up to 45.8 µM
Inconclusive results are not listed. Calls of active or inactive are those of the source. The call rests on the fitted dose curve; in most records, active means well fitted cell-killing curve with a large enough effect; inconclusive means small, poorly fitted or top-dose-only effect, or effect the other way; inactive means no such curve, though single readings can be large or run the other way.
Write down one outcome, taken from 1 (yes) (active), 0 (no) (inactive)

// known answers, use as guide
molecule: Cc1cccc(-c2[nH]c(C(C)(C)C)nc2-c2ccc3c(c2)OCO3)n1
class: 1 (yes)
--
molecule: O=C1C(CCC(O)c2ccc(F)cc2)C(c2ccc(O)cc2)N1c1ccc(F)cc1 (stereo not given)
class: 0 (no)
--
molecule: COc1ccc(-c2cc3nccn3c(Nc3ncccc3C(N)=O)n2)cc1OC
class: 1 (yes)
--
molecule: CN(C)CCOc1ccc(-c2nc(-c3ccc4c(c3)CCC4=NO)c(-c3ccncc3)[nH]2)cc1
class: 1 (yes)

Query molecule follows.
### Prompt What is the recorded call for this molecule in the test? C=C1[C@H](n2cnc3c(=O)[nH]c(N)nc32)C[C@H](O)[C@H]1CO
### Response 1 (yes)

* * *

- protocol.text: Quantitative High-Throughput drug screen in 47 multiple myeloma cell lines against the NCATS MIPE library collection: Karpas25_ECACC cell viability assay (AID 1918968; further: nearly all actives have a fitted effect of over 35% in size)
- condition.set: Karpas25 myeloma viability, CellTiter-Glo ATP, 48 h; series mostly up to 45.8 µM
Results filed as inconclusive are left out. Calls of active or inactive are those of the source. Calls come from the whole dose curve; as a rule, active = well fitted cell-killing curve with a large enough effect; inconclusive = small, poorly fitted or top-dose-only effect, or effect the other way; inactive = no such curve, though single readings can be large or run the other way.
Respond using exactly one of the listed classes: active, inactive

molecule: Clc1ccc(COC(Cn2ccnc2)c2ccc(Cl)cc2Cl)c(Cl)c1 (stereo unspecified)
class: active
--
molecule: CCN1CCC(n2cc(CNc3cc(Cl)c4ncc(C#N)c(Nc5ccc(F)c(Cl)c5)c4c3)nn2)CC1
class: active
--
molecule: CCCCCOC(=O)Nc1nc(=O)n([C@@H]2O[C@H](C)[C@@H](O)C2O)cc1F (stereo partly specified)
class: active
--
molecule: C[C@@H]1O[C@@H](O[C@H]2CC[C@@]3(C)[C@H](CC[C@@H]4[C@H]3C[C@@H](O)[C@]3(C)[C@@H](C5=CC(=O)OC5)CC[C@]43O)C2)C[C@H](O)[C@@H]1O[C@H]1C[C@H](O)[C@H](O[C@H]2C[C@H](O)[C@@H](O)[C@@H](C)O2)[C@H](C)O1 (stereo in doubt)
class: active
--
molecule: O=c1[nH]c(=O)n([C@H]2C[C@@H](O)[C@@H](CO)O2)cc1C(F)(F)F
class: active

### Prompt Please indicate how the test categorized COc1cc(F)c(C(C)C)cc1-c1ccc(C(F)(F)F)cc1CN1C(=O)O[C@H](c2cc(C(F)(F)F)cc(C(F)(F)F)c2)[C@@H]1C .
### Response inactive

### Prompt Per the assay record, what outcome was assigned to O=C(Nc1cccc2c(=O)cc(-c3nn[nH]n3)oc12)c1ccc(OCCCCc2ccccc2)cc1 ?
### Response active

### Prompt Fill in: this test's call for N#Cc1c(N(CC(=O)O)CC(=O)O)sc(C(=O)O)c1CC(=O)O is ___
### Response active

### Prompt Tell me the recorded outcome of this test for CCc1cc(-c2n[nH]c(C)c2-c2ccc3c(c2)OCCO3)c(O)cc1O .
### Response active

### Prompt How was CN(C)N=Nc1nc[nH]c1C(N)=O classified in this test?
### Response inactive

### Prompt Short answer needed: outcome of this test for CNC1[C@H](O)C(O[C@@H]2C(O)C(O[C@H]3O[C@H]([C@@H](C)NC)CC[C@H]3N)[C@@H](N)C[C@H]2N)OC[C@]1(C)O (stereo partly specified) ?
### Response inactive

### Prompt What classification did CC(=O)Nc1cccc(-n2c(=O)n(C3CC3)c(=O)c3c(Nc4ccc(I)cc4F)n(C)c(=O)c(C)c32)c1 end up with in this test?
### Response active

* * *

- protocol.text: Quantitative High-Throughput drug screen in 47 multiple myeloma cell lines against the NCATS MIPE library collection: KMS28BM_JCRB cell viability assay (AID 1919874); further: nearly all actives have a fitted effect of over 35% in size
- condition.set: CellTiter-Glo ATP, 48 h; series mostly up to 45.8 µM
Results filed as inconclusive are left out. The source made the active and inactive calls. Calls come from the whole dose curve; as a rule, active = well fitted cell-killing curve with a large enough effect; inconclusive = small, poorly fitted or top-dose-only effect, or effect the other way; inactive = no such curve, though single readings can be large or run the other way.
Return exactly one item of Y = active, N = inactive

molecule: C[C@@H]1CCO[C@H]2Cn3cc(C(=O)NCc4ccc(F)cc4F)c(=O)c(O)c3C(=O)N12
class: Y
--
molecule: CC1=C(CC(=O)O)c2cc(F)ccc2C1=Cc1ccc(S(C)=O)cc1 (centres undefined)
class: Y
--
molecule: Cc1cc(NC(=O)Nc2ccc(N(C)C)cc2)c2cc(F)cc(F)c2n1
class: N
--
molecule: C[C@@H]1C[C@H]2[C@@H]3CCC4=CC(=O)C=C[C@]4(C)[C@@]3(F)[C@@H](O)C[C@]2(C)[C@@]1(O)C(=O)CO
class: N
--
molecule: CO[C@H]1C=CO[C@@]2(C)Oc3c(C)c(O)c4c(O)c(c(C=NN5CCN(C)CC5)c(O)c4c3C2=O)NC(=O)C(C)=CC=C[C@H](C)[C@H](O)[C@@H](C)[C@@H](O)[C@@H](C)[C@H](OC(C)=O)[C@H]1C
class: N
--
molecule: CC[C@H](CC#N)OC(=O)N[C@@H](C)c1cccc(NC(=O)Nc2ccc(-c3cnco3)c(OC)c2)c1
class: Y
--
molecule: CN(CC=CC#CC(C)(C)C)Cc1cccc2ccccc12
class: N
--
molecule: Cc1cccc(-c2[nH]c(C(C)(C)C)nc2-c2ccc3c(c2)OCO3)n1
class: Y

Continue with the molecule presented below.
### Prompt What was the test verdict on C[C@@H]1CC=CC=CC=CC=C[C@@H](O[C@@H]2O[C@H](C)[C@@H](O)[C@H](N)[C@H]2O)C[C@@H]2O[C@](O)(C[C@@H](O)C[C@@H]3O[C@@H]3C=CC(=O)O1)C[C@H](O)[C@@H]2C(=O)O ?
### Response Y

* * *

- protocol.text: qHTS for identification of novel therapeutic agents for treatment of microphthalmiaassociated transcription factor (MiT) renal cell carcinoma (RCC) (AID 1963991);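 further: curves scaled with 100% = DMSO viability and 0% = empty wells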
- condition.set: TFE3-RCC UOK109 viability, CellTiter-Glo, 48 h; measured here: UOK109 Z-AUC; stronger effect = lower value
Records with an inconclusive call do not appear.
The recorded z-score of each item maps onto one of these classes: one: < 0.3; two: ≥ 0.3 and < 0.9; three: ≥ 0.9

molecule: CCC[C@H](Nc1nc(-c2ccc(NC(=O)NCC)c(OC)c2)ncc1C)c1cccnc1
class: one
//
molecule: C[C@H](c1ccc(F)cc1CCCC(=O)O)N(c1cc(F)ccc1F)S(=O)(=O)c1ccc(Cl)cc1
class: one
//
molecule: CCCCC(F)(F)[C@@]1(O)CC[C@H]2[C@H](CC(=O)[C@@H]2CCCCCCC(=O)O)O1
class: two

### Prompt Which bin, given its z-score, does CC(=O)OCC(=O)[C@@]1(O)CC[C@H]2[C@@H]3CCC4=CC(=O)C=C[C@]4(C)[C@@H]3[C@@H](O)C[C@@]21C occupy?
### Response three

### Prompt Returns: class label. Input: O=C(O)C1=NC(C(=O)O)CC(C=CN2c3cc(O)c(OC4OC(CO)C(O)C(O)C4O)cc3CC2C(=O)O)=C1 (stereo not drawn)
### Response three

### Prompt Which z-score category applies to CCOC(=O)N1c2ccc(C(F)(F)F)cc2[C@@H](N(Cc2cc(C(F)(F)F)cc(C(F)(F)F)c2)C(=O)OC)C[C@H]1CC here?
### Response two

### Prompt Into which category would you place C=CC[N+]1([C@H]2C[C@H]3[C@@H]4CC[C@H]5C[C@H](O)[C@@H](N6CCOCC6)C[C@]5(C)[C@@H]4CC[C@]3(C)[C@H]2OC(C)=O)CCCC1 ?
### Response two

* * *

- protocol.text: Quantitative High-Throughput drug screen in 47 multiple myeloma cell lines against the NCATS MIPE library collection: MOLP8_DSMZ cell viability assay (AID 1918977); further: nearly all actives have a fitted effect of over 45% in size
- condition.set: MOLP8 myeloma viability, CellTiter-Glo ATP luminescence, 48 h; series mostly up to 45.8 µM
Records with an inconclusive call do not appear. Calls of active or inactive are those of the source. The call rests on the fitted dose curve; in most records, active means well fitted cell-killing curve with a large enough effect; inconclusive means small, poorly fitted or top-dose-only effect, or effect the other way; inactive means no such curve, though single readings can be large or run the other way.
Respond with a class label; see active, inactive

These recorded examples may help you get a feel for the data.
smiles.record: CN1CCN(c2ncc(-c3cc(Cl)cc(Cl)c3Cl)c(N)n2)CC1
class: inactive

smiles.record: c1ccc(CNc2nc(N3CCOc4ccccc43)nc3c2CCCC3)cc1
class: inactive

smiles.record: Cc1cnc(Nc2cccc(CN3CCOCC3)c2)nc1Nc1cccc(S(=O)(=O)NC(C)(C)C)c1
class: active

smiles.record: CSc1cccc(Nc2ncc3cc(-c4c(Cl)cccc4Cl)c(=O)n(C)c3n2)c1
class: active

Below: the item to evaluate.
### Prompt Per the records of this test, what outcome belongs to CN(C)c1ccccc1CN1CCCN(Cc2ccccc2N(C)C)C1c1ccncc1 ?
### Response active
